In this section we review reported Summer wheat observed (%) values for a set of compounds.
Tested on: Summer wheat
experimental.details: Herbicidal post-emergence action with/without safener (Example H, container trials with cereals, greenhouse or outdoors)
Type: in vivo
condition.parameters: greenhouse; 12.5 g of a.i./ha; without safener
Response body: numeric value in %, unit text excluded.

Some compounds with known Summer wheat observed (%) results, for comparison:
| compound | Summer wheat observed (%) |
| --- | --- |
| CCCCOC1CCCC2(C1)NC(=O)C(c1c(Br)cc(C)cc1CC)=C2O (single isomer, unassigned) | 60 |
| CCCOC1CCCC2(C1)NC(=O)C(c1c(Br)cc(C)cc1CC)=C2O (single isomer, unassigned) | 97 |
| CCOC(=O)OC1=C(c2c(Br)cc(C)cc2CC)C(=O)NC12CCCC(OC)C2 (single isomer, unassigned) | 60 |
| CCOC1CCCC2(C1)NC(=O)C(c1c(Br)cc(C)cc1CC)=C2O (single isomer, unassigned) | 95 |

Please examine the following record next.
// CCc1cc(C)cc(Br)c1C1=C(O)C2(CCCC(OC)C2)NC1=O (single isomer, unassigned) : Summer wheat observed (%) value = 30
